# Test system: LLC-MK2
# procedure-summary: Cytotoxicity against monkey LLC-MK2 cells after 96 hrs by Alamar Blue assay
# Type: cell-based
# experimental-conditions: Macaca mulatta, LLC-MK2, 96 h
observed-property: IC50

input: IC50 lookup needed for `CCOC(=O)c1ccc(NC2CCCCC2)c(N)c1` , thanks.
output: > 240 µM

====

# Test system: Leishmania major
# procedure-summary: Antileishmanial activity against promastigote stage of Leishmania major Friedlin clone V1 assessed as parasite survival after 72 hrs by luciferase reporter gene assay
# Type: functional
# experimental-conditions: Friedlin clone V1, 72 h, read-out: LD50 (the source's name)
Assignment: determine reported LC50 for the given molecules.
// note: answer is a bare numeric in µM

input: # query: LC50 | item CCOC(=O)c1ccc(NC2CCC(C(C)(C)C)CC2)c(NCc2ccncn2)c1 (stereo not given) | system: Leishmania major
output: 4.92

input: # query: LC50 | item `CCOC(=O)c1ccc(NC2CCCCC2)c(NCc2cccc(OC)c2)c1` | system: Leishmania major
output: 4.98

input: # query: LC50 | item `CCOC(=O)c1ccc(NC2CCCCC2)c(N)c1` | system: Leishmania major
output: 28.8

input: # query: LC50 | item `CCOC(=O)c1cc(NCc2ccncn2)c(NC2CCCCC2)cc1F` | system: Leishmania major
output: 9.49

====

Assignment: determine reported LC50 for the given molecules.
# Tested on: Leishmania major
# procedure-summary: Antileishmanial activity against promastigote stage of Leishmania major Friedlin clone V1 assessed as parasite survival after 72 hrs by luciferase reporter gene assay
# Type: functional
# experimental-conditions: Friedlin clone V1, 72 h, read-out: LD50 (the source's name)

input: LC50 lookup needed for `CCCCCCCCCCOC(=O)c1cc(N)c(NC2CCCCC2)cc1F` , thanks.
output: > 10 µM

input: LC50 lookup needed for `CCOC(=O)c1ccc(NC2CCCCC2)c(NCc2ccc(C(=O)OC)cc2)c1` , thanks.
output: > 10 µM

input: LC50 lookup needed for `CCOC(=O)c1ccc(NC23CC4CC(CC(C4)C2)C3)c(NCc2ccncn2)c1` , thanks.
output: > 10 µM

input: LC50 lookup needed for `Nc1cc(C(=O)OCCN2CCOCC2)ccc1NC1CCCCC1` , thanks.
output: > 10 µM

input: LC50 lookup needed for `CCOC(=O)c1ccc(NC2CCCCC2)c(NCc2cccc(Cl)c2)c1` , thanks.
output: > 10 µM

input: LC50 lookup needed for `CCOC(=O)c1ccc(NC2CCCCC2)c(N(Cc2ccccc2)Cc2ccccc2)c1` , thanks.
output: > 10 µM
